Test system: Calf thymus DNA
Experiment: Binding affinity to calf thymus dsDNA assessed as change in melting temperature in sodium cacodylate buffer at pH 7 at compound:polynucleotide concentration ratio of 0.2 by thermal denaturation assay
Assay type: nucleic-acid assay
Conditions: Bos taurus
PARAMETER MEASURED: ΔTm (°C)

a. N#Cc1c(-n2cc(CCCCl)nn2)c2ccccc2n2c1nc1ccccc12
b. N#Cc1c(-n2cc(CCCCl)nn2)c2ccc(F)cc2n2c1nc1ccccc12
Input line: Hey, which is lower on measured ΔTm, a or b ? Please indicate the selected item by its label.
Output line: b
(b: 0.5 °C, a: 1.2 °C)

====

Reported GI50 at 72 h is given for each of the following compounds.
Assay: Growth inhibition of human HaCaT cells incubated for 72 hrs by MTT assay
Type: cell-based
Could you give me the number in nM? Just the number is fine.

Here is how some compounds turned out for GI50 at 72 h.
# STRUCTURE AS SMILES, GI50 at 72 h / nM
records = [
    ("N#Cc1c(-n2cc(-c3cc(C(F)(F)F)cc(C(F)(F)F)c3)nn2)c2ccc(F)cc2n2c1nc1ccccc12", 2100),
    ("N#Cc1c(-n2cc(CCCCl)nn2)c2ccc(-n3cc(CCCCl)nn3)cc2n2c1nc1ccccc12", 3200),
    ("N#Cc1c(-n2cc(CNS(=O)(=O)c3ccc(F)cc3)nn2)c2ccccc2n2c1nc1ccccc12", 2900),
    ("N#Cc1c(-n2cc(CNS(=O)(=O)c3ccc(F)cc3)nn2)c2ccc(F)cc2n2c1nc1ccccc12", 2900),
    ("N#Cc1c(-n2cc(CCO)nn2)c2ccc(F)cc2n2c1nc1ccccc12", 730),
    ("N#Cc1c(-n2cc(CCCCl)nn2)c2ccc(F)cc2n2c1nc1ccccc12", 3500),
]

Input line: Need GI50 at 72 h, item `N#Cc1c(-n2cc(-c3cc(C(F)(F)F)cc(C(F)(F)F)c3)nn2)c2ccccc2n2c1nc1ccccc12`
Output line: 2200

Input line: Same question, `N#Cc1c(-n2cc(C3CC3)nn2)c2ccc(-n3cc(C4CC4)nn3)cc2n2c1nc1ccccc12` this time
Output line: 3240

Input line: Same question, `N#Cc1c(-n2cc(CCCCl)nn2)c2ccccc2n2c1nc1ccccc12` this time
Output line: 1000

Input line: Same question, `N#Cc1c(-n2cc(CCO)nn2)c2ccccc2n2c1nc1ccccc12` this time
Output line: 3300

Input line: Same question, `CCCCCCCCCCc1cn(-c2c(C#N)c3nc4ccccc4n3c3cc(F)ccc23)nn1` this time
Output line: 3500
